Test system: WT HIV-1 strain (IIIB)
Assay: Anti-HIV activity in MT-4 cells, MTT method, WT strain IIIB
Type: cell-based
Settings: Human immunodeficiency virus 1, IIIB, MT4, read-out: EC50 IIIB
pEC50: −log10 of the molar value.
Measurement Kind: pEC50

Molecule: Cc1ccnc2c1NC(=O)c1cccnc1N2C1CC1 [NVP, Nevirapine, reference compound]
Number: 6.79

----------
Tested on: HIV-1 K103N+Y181C (RES056)
Assay: microbe, parasite or virus in culture
Type: cell-based
Conditions: Human immunodeficiency virus 1, MT4, read-out: EC50 RES056
pEC50: −log10 of the molar value.
Measurement Kind: pEC50

Compound: Cc1ccnc2c1NC(=O)c1cccnc1N2C1CC1 [NVP, Nevirapine, reference compound]
Measurement Kind: pEC50
Qualifier: <
Number: 5.02

Compound: Cc1cc(C#N)cc(C)c1Oc1nc(NC2CCN(Cc3ccc(C(N)=O)cc3)CC2)nc2ncsc12
Measurement Kind: pEC50
Qualifier: <
Number: 4.81

Compound: Cc1cc(C#N)cc(C)c1Oc1nc(NC2CCN(Cc3ccc(C(N)=O)cc3)CC2)nc2scnc12
Measurement Kind: pEC50
Qualifier: =
Number: 7.55

Compound: Cc1cc(C#N)cc(C)c1Oc1nc(NC2CCN(Cc3ccc(S(C)(=O)=O)cc3)CC2)nc2scnc12
Measurement Kind: pEC50
Qualifier: =
Number: 7.74

Compound: Cc1cc(C#N)cc(C)c1Oc1nc(NC2CCN(Cc3ccc(S(N)(=O)=O)cc3)CC2)nc2scnc12
Measurement Kind: pEC50
Qualifier: =
Number: 7.74
